parameter-measured: intrinsic clearance, rat liver microsomes (mL/min/kg)

compound=Cc1cnc(C(C)(C)NCC(=O)N(C)C)s1 value_reported=20.9

1: CN(CC(=O)Nc1ccncc1)C1CCCC1
2: CC(C)c1cc(N(C)Cc2nc(C3CC3)n[nH]2)n[nH]1
3: N#Cc1cccc(-c2ccc3[nH]ccc3c2)n1
4: COc1ccccc1OC1CCN(Cc2ccccc2C#N)CC1
Task: Order each entry by recorded intrinsic clearance, rat liver microsomes, climbing from the minimum. Please reply with the labels ordered as requested. Many thanks.
Output: 2, 1, 3, 4
(2: 36.7 mL/min/kg, 1: 393 mL/min/kg, 3: 657 mL/min/kg, 4: 1510 mL/min/kg)

a: CCc1cc(-c2ccc(OC)c3nc(C)ccc23)nc(N2CCOCC2)n1
b: CCc1c(N)cnn1-c1ccccc1C
Task: Just curious, which one has the larger intrinsic clearance, rat liver microsomes reading, a or b ? Lab log: write the label of the selected item as the result.
Output: b

====

parameter-measured: intrinsic clearance, human liver microsomes (mL/min/kg)

compound=Cc1cccc(NC(=O)CN(C)c2ncccc2F)n1 value_reported=16.2
compound=CC(C)(C)c1csc(Cn2ccnc2-c2ccccn2)n1 value_reported=122
compound=CCc1cc2c(N(C)CCO)ncnc2s1 value_reported=73.6
compound=CC(C)(C)c1cc(C(=O)CSc2nncn2-c2ccccc2)cc(C(C)(C)C)c1O value_reported=15.9
compound=Cc1nccc(-c2cccc(NCC(=O)Nc3ccc(F)cc3)c2)n1 value_reported=39.1

I: CC(C)c1nc(O)c2nnn(C[C@@H]3CCCN(C(=O)C(C)(C)C)C3)c2n1
II: O=C(NCC1=CCCN(Cc2cc(F)ccc2Cl)C1)c1ccco1
Task: Just curious, which one has the larger intrinsic clearance, human liver microsomes reading, I or II ? Lab log: write the label of the selected item as the result.
Output: II
(II: 200 mL/min/kg, I: 29.4 mL/min/kg)

====

parameter-measured: intrinsic clearance, rat liver microsomes (mL/min/kg)

compound="O=C(c1ccc2[nH]ccc2c1)N1CCCC(c2cccc(-c3ccc(F)cc3)n2)C1 (stereo unspecified)" value_reported=571

1: COCCc1nc(CCCn2cccn2)n(C2Cc3ccccc3C2)n1
2: CN(C)C1(CNC(=O)N2CCC=C(c3ccccc3)C2)CCOCC1
Task: Just curious, which one has the larger intrinsic clearance, rat liver microsomes reading, 1 or 2 ? Lab log: write the label of the selected item as the result.
Output: 2

====

settings: pH 6.8
parameter-measured: aqueous solubility (µg/mL)

# count of solved cases: 8
molecule=Cc1ccc2c(c1)cc(CNCCc1ccccc1)c1nnnn12 value_reported=24.9
molecule=COCC1CCN(c2noc(-c3cccs3)n2)CC1 value_reported=12.9
molecule=Nc1cnn(CC(=O)N2CCCCC2)c1 value_reported=36.4
molecule=CS(=O)(=O)CCNc1ccc2ccc(F)cc2n1 value_reported=53.5
molecule=CC[C@@H]1[C@H](F)C(=O)N[C@@H]1COc1nccc2cc(C(N)=O)c(OC)cc12 value_reported=53.6
molecule=CN1CCN(C(=O)c2cc(Br)cnc2Cl)c2cnccc21 value_reported=57.8
molecule="O=C1NCCN(C(=O)c2ccc3nccn3c2)C1c1ccccc1C(F)(F)F (centres undefined)" value_reported=69.6
molecule=Cc1ccc(CN(C)Cc2c(C)noc2C)o1 value_reported=31.6

a: Cc1ccc(-c2ccc(-c3nccn3CCCn3cnnc3)o2)cc1
b: CCc1nc2c(C)cc(N3CCN(CC(=O)N4CC(O)C4)CC3)cn2c1N(C)c1nc(-c2ccc(F)cc2)c(C#N)s1
c: CC(C)c1nnc(NCc2ccn(C)c2)o1
d: COc1ccc(-c2csc3ncnc(Oc4ccc(C)nc4)c23)cc1
Task: Order the 4 molecules from highest to lowest aqueous solubility. Please reply with the labels ordered as requested. Many thanks.
Output: b, a, c, d

1: COc1cc2c(cc1NC(C)=O)oc1ccccc12
2: CS(=O)(=O)NC1CCN(C(=O)NCCc2ccc(F)cc2)CC1
3: N#Cc1c(N2CCCC2)oc2nc3ccccc3nc12
4: Cc1nnc(NC(=O)c2ccccc2-c2ccc(C(F)(F)F)cc2)s1
Task: Order the 4 molecules from highest to lowest aqueous solubility. Please reply with the labels ordered as requested. Many thanks.
Output: 2, 1, 4, 3
(2: 67.9 µg/mL, 1: 34.4 µg/mL, 4: 1.35 µg/mL, 3: 0.3 µg/mL)

1: Cc1cccc(NC(=O)CN(C)c2ncccc2F)n1
2: O=C(CSC1CCCC1)NCCn1nc2c(cc1=O)CCCC2
Task: Dear colleague, could you let me know whether 1 or 2 has the lower recorded aqueous solubility? Thanks. Lab log: write the label of the selected item as the result.
Output: 1
(1: 36.8 µg/mL, 2: 60.8 µg/mL)

I: O=C(CSC1CCCC1)N1CCC(n2ccnn2)CC1
II: Brc1ccc(-c2nnc(Cn3cnc4ccccc43)o2)o1
III: Cc1cccc2c1Oc1nc(-c3ccccc3)[nH]c(=S)c1C2
Task: Order the 3 molecules from highest to lowest aqueous solubility. Please reply with the labels ordered as requested. Many thanks.
Output: II, I, III
(II: 62.7 µg/mL, I: 39.1 µg/mL, III: 0.33 µg/mL)
